Listed here: items and their measured Human Liver Microsomal Metabolism % remaining (Assay Conditions B).
experiment: In vitro metabolism assay, human liver microsomes, Assay Conditions B; assay type: in vitro ADME; details: 10 min, 3 μM, pH 7.4
Answer format: numeric, % implied, no suffix.

Task item: Which Human Liver Microsomal Metabolism % remaining (Assay Conditions B) is listed for CC(C)[C@@H](NC(=O)C1CCCC1)C(=O)N1CC[C@](O)(c2ccc(Cl)cc2)C(C)(C)C1 [#460] ?
Reply: 16

We now examine a further compound.
Task item: Give the measured Human Liver Microsomal Metabolism % remaining (Assay Conditions B) of CC(C)CC(=O)N[C@@H](C(=O)N1CC[C@](O)(c2ccc(Cl)cc2)C(C)(C)C1)C(C)C [#466] .
Reply: 33
